# Measured on: UniProtKB Q96EB6
# Sequence (Q96EB6 1-747): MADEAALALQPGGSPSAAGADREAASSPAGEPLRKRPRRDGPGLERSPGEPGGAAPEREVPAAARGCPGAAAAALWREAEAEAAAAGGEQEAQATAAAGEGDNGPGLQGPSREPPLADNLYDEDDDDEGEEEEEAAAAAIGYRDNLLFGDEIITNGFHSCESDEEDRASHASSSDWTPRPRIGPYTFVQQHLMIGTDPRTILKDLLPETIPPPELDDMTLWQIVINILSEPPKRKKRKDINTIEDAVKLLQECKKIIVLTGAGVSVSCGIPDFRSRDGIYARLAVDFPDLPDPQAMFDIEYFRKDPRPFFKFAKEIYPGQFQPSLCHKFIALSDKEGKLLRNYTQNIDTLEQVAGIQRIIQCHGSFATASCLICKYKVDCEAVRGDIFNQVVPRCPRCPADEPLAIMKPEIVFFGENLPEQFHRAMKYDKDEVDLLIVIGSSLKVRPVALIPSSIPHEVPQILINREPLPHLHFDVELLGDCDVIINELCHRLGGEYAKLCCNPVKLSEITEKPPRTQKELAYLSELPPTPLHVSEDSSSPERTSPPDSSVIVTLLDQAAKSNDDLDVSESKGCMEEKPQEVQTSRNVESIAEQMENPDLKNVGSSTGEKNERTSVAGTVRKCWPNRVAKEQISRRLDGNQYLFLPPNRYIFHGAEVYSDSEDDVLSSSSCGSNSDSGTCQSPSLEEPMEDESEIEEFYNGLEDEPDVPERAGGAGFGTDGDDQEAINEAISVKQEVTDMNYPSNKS
# Measurement protocol: Trp mass spectrometry assay of SIRT1 activity
# Format: biochemical
# Measurement parameters: percent maximum fold activation of SIRT1; Trp peptide substrate; read-out: Trp % Fold Act
Entries and their measured Emax follow.

Check out these entries, answers already filled in.
O=C(Nc1cccc(CN2CCOCC2)n1)c1cnc2ccc(-c3ccc(F)c(F)c3)nn12 [Compound 43] : < 350%
O=C(Nc1ccccn1)c1cnc2ccc(-c3ccccc3OC(F)(F)F)nn12 [Compound 14] : ≥ 350%
O=C(Nc1ncccn1)c1cnc2ccc(-c3ccccc3C(F)(F)F)nn12 [Compound 84] : ≥ 350%
Cc1nn2ccc(N3CCC[C@H]3C(F)(F)F)nc2c1C(=O)Nc1cnccn1 [Compound 1046] : ≥ 350%
O=C(Nc1cncc(F)c1)c1cnn2ccc(N3CCCC3C(F)(F)F)nc12 (stereo not shown) [Compound 1001] : ≥ 350%

Report measured Emax; entry is Cc1nn2ccc(N3CCC[C@H]3C(F)(F)F)nc2c1C(=O)Nc1ccncn1 [Compound 1048]
≥ 350%

Please report Emax for the following compound: O=C(Nc1ccccn1)c1cnn2ccc(N3CCC(C(F)(F)F)C3)nc12 (stereo not shown) [Compound 1011]
≥ 350%

====

# Measured on: SIRT1 (Homo sapiens, UniProt Q96EB6)
# Measurement protocol: TAMRA based mass spectrometry assay of SIRT1 activity
# Type: biochemical
# Measurement parameters: TAMRA assay; percent maximum fold activation; read-out: TAMRA % Fold Act
Listing of recorded Emax by entry.

# count of solved cases: 3
Cc1cc(NC(=O)c2c(C)nn3ccc(-c4ccccc4C(F)(F)F)nc23)ccn1 [Compound 629] : ≥ 350%
Cc1cnc(C(=O)Nc2cnn3ccc(-c4ccccc4C(F)(F)F)nc23)cn1 [Compound 800] : ≥ 350%
Cc1ccc(NC(=O)c2cnn3ccc(-c4ccccc4C(F)(F)F)nc23)c(C)n1 [Compound 641] : ≥ 350%

Please supply the value of reported Emax for the item Cc1nc(C(=O)Nc2cnc3ccc(-c4ccccc4Cl)nn23)cs1 [Compound 292]
≥ 350%

====

# Measured on: SIRT1 (Homo sapiens)
# Measurement protocol: Trp mass spectrometry assay of SIRT1 activity
# Format: biochemical
# Measurement parameters: Trp assay; percent maximum fold activation; read-out: Trp % Fold Act
Observation type: Emax

COc1ccc(NC(=O)c2c(C)nc3ccc(-c4cccc(F)c4)nn23)nn1 [Compound 761] : < 350%
Cc1cc(-c2ccccc2C(F)(F)F)nn2c(C(=O)Nc3ccnc(O[C@@H]4CCOC4)n3)cnc12 [Compound 598] : ≥ 350%
O=C(Nc1cnn2ccc(-c3ccccc3OC(F)(F)F)nc12)c1ncccc1F [Compound 754] : < 350%
CN1CCN(c2ccc3ncc(C(=O)Nc4ccncn4)n3n2)CC1 [Compound 971] : < 350%
O=C(Nc1cnc2ccc(-c3ccccc3C(F)(F)F)nn12)c1cscn1 [Compound 218] : < 350%

Report measured Emax; entry is N#Cc1ccccc1-c1ccc2ncc(NC(=O)c3cccc(OCC(O)CO)n3)n2n1 (centres unmarked) [Compound 339]
< 350%

Recall and state the measured Emax for CC1(C)CCN(c2ccc3ncc(C(=O)Nc4ccccn4)n3n2)C1 [Compound 952] .
≥ 350%

In one line, give reported Emax of the entry O=C(Nc1ccncn1)c1cnc2ccc(-c3ccccc3OC(F)(F)F)nn12 [Compound 358] .
≥ 350%

====

# Measured on: SIRT1 (Homo sapiens, UniProt Q96EB6)
# Measurement protocol: Trp mass spectrometry assay of SIRT1 activity
# Type: biochemical
# Measurement parameters: Trp assay; percent maximum fold activation; read-out: Trp % Fold Act
Reported Emax values for a set of compounds

// known answers, use as guide
C[C@@H]1CN(c2ccc3ncc(C(=O)Nc4cncc(F)c4)n3n2)C[C@H](C)O1 [Compound 997] : ≥ 350%
Cn1ccc(NC(=O)c2cnc3ccc(N4CC[C@H](F)C4)nn23)n1 [Compound 891] : ≥ 350%

Retrieve Emax measured for Cc1cnc(NC(=O)c2c(C)nc3c(OC[C@H](O)CO)cc(-c4ccccc4C(F)(F)F)nn23)s1 [Compound 861] and print it.
≥ 350%

Provide one value: measured Emax of CN(C)c1ccnc(NC(=O)c2cnc3ccc(-c4cccc(OC[C@H](O)CO)c4)nn23)c1 [Compound 878]
< 350%

Retrieve Emax measured for Cc1nc2ccc(N3CC[C@H](F)C3)nn2c1C(=O)Nc1ncccn1 [Compound 852] and print it.
≥ 350%

Answer with the recorded Emax for the compound listed here: Cc1cc2ncc(C(=O)Nc3ccccn3)n2nc1-c1ccccc1C(F)(F)F [Compound 224]
≥ 350%

Report Emax, nothing else, for this compound: Cc1nc2c(OC[C@H](O)CO)cc(-c3ccccc3C(F)(F)F)nn2c1C(=O)Nc1ccc(F)cn1 [Compound 835]
≥ 350%

State its Emax: Cc1cc(NC(=O)c2cnc3ccc(-c4ccccc4F)nn23)ccn1 [Compound 242]
< 350%

Name the recorded Emax of the item Cc1cc(-c2ccccc2C(F)(F)F)nn2c(C(=O)Nc3ccnc(N4CCC4)c3)cnc12 [Compound 207] in your answer.
≥ 350%

Write down Emax measured for item Cc1nc(C(=O)Nc2c(C)nc3ccc(-c4ccccc4Cl)nn23)c(C)s1 [Compound 352]
< 350%

Please look at this compound and report its Emax: Cc1ccnnc1NC(=O)c1cnc2c(C)cc(-c3ccccc3C(F)(F)F)nn12 [Compound 681]
≥ 350%

For the compound CO[C@H]1CCN(c2ccc3ncc(C(=O)Nc4ccncn4)n3n2)C1 [Compound 973] , report Emax.
< 350%

====

# Measured on: UniProt Q96EB6
# Measurement protocol: TAMRA based mass spectrometry assay of SIRT1 activity
# Type: biochemical
# Measurement parameters: concentration of test compound giving 150% activation of SIRT1; TAMRA peptide substrate
Observation type: TAMRA EC1.5 (μM)

Below: 5 compounds and their reported TAMRA EC1.5 (μM).
O=C(Nc1nc(CN2CCOCC2)cs1)c1cnc2ccc(-c3ccc(F)c(F)c3)nn12 : B (EC1.5 1-25 μM)
O=C(Nc1cccc(CN2CCOCC2)n1)c1cnc2ccc(-c3c(F)cccc3Cl)nn12 : B (EC1.5 1-25 μM)
Cc1ncccc1-c1ccc2ncc(C(=O)Nc3ccnc(N4CCCC4)c3)n2n1 : B (EC1.5 1-25 μM)
Cc1cc(NC(=O)c2cnc3ccc(-c4ccccc4C(F)(F)F)nn23)cc(C)n1 : A (EC1.5<1 μM)
Cc1cc(-c2ccccc2C(F)(F)F)nn2c(C(=O)Nc3ccncc3)cnc12 : A (EC1.5<1 μM)

Give the reported TAMRA EC1.5 (μM) for this compound. O=C(Nc1nc(CN2CCOCC2)cs1)c1cnc2ccc(-c3cc(F)ccc3F)nn12
B (EC1.5 1-25 μM)

Report TAMRA EC1.5 (μM), nothing else, for this compound: O=C(Nc1nccs1)c1cnc2ccc(-c3ccccc3C(F)F)nn12
B (EC1.5 1-25 μM)

====

Listing of entries alongside the reported Emax.
# Measured on: SIRT1 (Homo sapiens)
# Sequence (Q96EB6 1-747): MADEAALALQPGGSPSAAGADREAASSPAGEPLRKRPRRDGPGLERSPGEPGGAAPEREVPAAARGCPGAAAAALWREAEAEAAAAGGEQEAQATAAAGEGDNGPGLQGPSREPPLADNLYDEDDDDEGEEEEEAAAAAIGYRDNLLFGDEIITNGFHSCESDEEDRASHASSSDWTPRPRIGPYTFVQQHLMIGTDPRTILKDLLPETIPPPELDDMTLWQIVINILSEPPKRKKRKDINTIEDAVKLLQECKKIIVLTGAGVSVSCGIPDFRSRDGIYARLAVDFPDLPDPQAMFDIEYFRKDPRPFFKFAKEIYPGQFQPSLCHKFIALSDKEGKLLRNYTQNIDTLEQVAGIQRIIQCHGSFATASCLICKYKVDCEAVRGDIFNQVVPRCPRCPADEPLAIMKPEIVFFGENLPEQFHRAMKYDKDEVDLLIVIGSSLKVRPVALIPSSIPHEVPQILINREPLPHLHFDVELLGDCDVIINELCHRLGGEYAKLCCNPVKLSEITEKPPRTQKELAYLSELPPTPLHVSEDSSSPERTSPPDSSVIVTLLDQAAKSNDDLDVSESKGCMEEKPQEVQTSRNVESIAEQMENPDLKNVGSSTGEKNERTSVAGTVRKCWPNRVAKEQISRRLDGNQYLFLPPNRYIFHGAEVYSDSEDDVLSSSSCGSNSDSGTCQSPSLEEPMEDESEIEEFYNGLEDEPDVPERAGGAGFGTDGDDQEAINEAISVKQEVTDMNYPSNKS
# Measurement protocol: TAMRA based mass spectrometry assay of SIRT1 activity
# Assay type: biochemical
# Measurement parameters: TAMRA assay; percent maximum fold activation; read-out: TAMRA % Fold Act

The following compounds have reported results that may help.
COc1cc(NC(=O)c2cnc3ccc(-c4ccccc4C(F)(F)F)nn23)ncn1 : ≥ 350%
Cc1ccc(NC(=O)c2c(C)nc3ccc(-c4cccc(F)c4)nn23)nn1 : < 350%
Cc1cccnc1NC(=O)c1c(C)nn2ccc(-c3ccccc3C(F)(F)F)nc12 : < 350%
Cc1nn2ccc(-c3ccccc3C(F)(F)F)nc2c1C(=O)Nc1ccnc(O)c1 : ≥ 350%
N#Cc1ccccc1-c1ccc2ncc(NC(=O)c3ccncn3)n2n1 : < 350%
Cc1cc(NC(=O)c2cnc3ccc(-c4ccccc4OCC(O)CO)nn23)ccn1 (centres unmarked) : ≥ 350%
Cc1cncc(NC(=O)c2cnn3ccc(-c4ccccc4C(F)(F)F)nc23)n1 : ≥ 350%

Kindly consider the entry below.
GET Emax | system: SIRT1 (Homo sapiens) | item: Cc1cc(NC(=O)c2cnc3ccc(-c4cccc(OCC(O)CO)c4)nn23)ccn1 (centres unmarked)
< 350%
